# test_target: T1, UbcH5B S22R C85K–Ub (UniProt P62837 1-147; P0CG47 1-76, S22R | C85K, conjugated to Ub via an isopeptide bond (non-hydrolyzable amide linkage) | conjugated to UbcH5B via an isopeptide bond)
# T1 construct: E2 ubiquitin-conjugating enzyme UbcH5B; ubiquitin (Ub); also called UbcH5B–Ub; E2–Ub; source: expressed, generated and purified as described previously [7]
# measurement_description: SPR; GST-Cbl variants coupled to CM-5 chips; UbcH5B–Ub as analyte at 0–120 μM; Biacore T200
# condition_set: both partners purified

{"columns": ["binder", "Kd [µM]"],
 "data": [
  ["His-GST-N-Cbl Y371S (residues 47-435) (domain or fragment, UniProt P22681 47-435, looked up, Cbl (c-Cbl), N-terminal fragment with TKBD, linker helix region and RING domain (N-Cbl), residues 47-435; mutation identified in MDS/MPN clinical samples; Tag not cleaved for SPR; not shown: His, N-terminal, kept; GST, N-terminal, kept) PPGTVDKKMVEKCWKLMDKVVRLCQNPKLALKNSPPYILDLLPDTYQHLRTILSRYEGKMETLGENEYFRVFMENLMKKTKQTISLFKEGKERMYEENSQPRRNLTKLSLIFSHMLAELKGIFPSGLFQGDTFRITKADAAEFWRKAFGEKTIVPWKSFRQALHEVHPISSGLEAMALKSTIDLTCNDYISVFEFDIFTRLFQPWSSLLRNWNSLAVTHPGYMAFLTYDEVKARLQKFIHKPGSYIFRLSCTRLGQWAIGYVTADGNILQTIPHNKPLFQALIDGFREGFYLFPDGRNQNPDLTGLCEPTPQDHIKVTQEQYELSCEMGSTFQLCKICAENDKDVKIEPCGHLMCTSCLTSWQESEGQGCPFCRCEIKGTEPIVVDPFD", 16],
  ["His-GST-N-Cbl M222E (residues 47-435) (domain or fragment, UniProt P22681 47-435, looked up, Cbl (c-Cbl), N-terminal fragment with TKBD, linker helix region and RING domain (N-Cbl), residues 47-435; Tag not cleaved for SPR; not shown: His, N-terminal, kept; GST, N-terminal, kept) PPGTVDKKMVEKCWKLMDKVVRLCQNPKLALKNSPPYILDLLPDTYQHLRTILSRYEGKMETLGENEYFRVFMENLMKKTKQTISLFKEGKERMYEENSQPRRNLTKLSLIFSHMLAELKGIFPSGLFQGDTFRITKADAAEFWRKAFGEKTIVPWKSFRQALHEVHPISSGLEAEALKSTIDLTCNDYISVFEFDIFTRLFQPWSSLLRNWNSLAVTHPGYMAFLTYDEVKARLQKFIHKPGSYIFRLSCTRLGQWAIGYVTADGNILQTIPHNKPLFQALIDGFREGFYLFPDGRNQNPDLTGLCEPTPQDHIKVTQEQYELYCEMGSTFQLCKICAENDKDVKIEPCGHLMCTSCLTSWQESEGQGCPFCRCEIKGTEPIVVDPFD", 14],
  ["His-GST-N-Cbl Y371A (residues 47-435) (domain or fragment, UniProt P22681 47-435, looked up, Cbl (c-Cbl), N-terminal fragment with TKBD, linker helix region and RING domain (N-Cbl), residues 47-435; Tag not cleaved for SPR; not shown: His, N-terminal, kept; GST, N-terminal, kept) PPGTVDKKMVEKCWKLMDKVVRLCQNPKLALKNSPPYILDLLPDTYQHLRTILSRYEGKMETLGENEYFRVFMENLMKKTKQTISLFKEGKERMYEENSQPRRNLTKLSLIFSHMLAELKGIFPSGLFQGDTFRITKADAAEFWRKAFGEKTIVPWKSFRQALHEVHPISSGLEAMALKSTIDLTCNDYISVFEFDIFTRLFQPWSSLLRNWNSLAVTHPGYMAFLTYDEVKARLQKFIHKPGSYIFRLSCTRLGQWAIGYVTADGNILQTIPHNKPLFQALIDGFREGFYLFPDGRNQNPDLTGLCEPTPQDHIKVTQEQYELACEMGSTFQLCKICAENDKDVKIEPCGHLMCTSCLTSWQESEGQGCPFCRCEIKGTEPIVVDPFD", 30],
  ["His-GST-N-Cbl Y371F (residues 47-435) (domain or fragment, UniProt P22681 47-435, looked up, Cbl (c-Cbl), N-terminal fragment with TKBD, linker helix region and RING domain (N-Cbl), residues 47-435; Tag not cleaved for SPR; not shown: His, N-terminal, kept; GST, N-terminal, kept) PPGTVDKKMVEKCWKLMDKVVRLCQNPKLALKNSPPYILDLLPDTYQHLRTILSRYEGKMETLGENEYFRVFMENLMKKTKQTISLFKEGKERMYEENSQPRRNLTKLSLIFSHMLAELKGIFPSGLFQGDTFRITKADAAEFWRKAFGEKTIVPWKSFRQALHEVHPISSGLEAMALKSTIDLTCNDYISVFEFDIFTRLFQPWSSLLRNWNSLAVTHPGYMAFLTYDEVKARLQKFIHKPGSYIFRLSCTRLGQWAIGYVTADGNILQTIPHNKPLFQALIDGFREGFYLFPDGRNQNPDLTGLCEPTPQDHIKVTQEQYELFCEMGSTFQLCKICAENDKDVKIEPCGHLMCTSCLTSWQESEGQGCPFCRCEIKGTEPIVVDPFD", 84]
]}
